Source: ChEMBL document CHEMBL5058564

Entries and their measured Growth Rate follow.
test system: U2OS; experiment: Incucyte cell viability with U2OS; type: toxicity, cell-based; settings: human, 18 h, 10 µM, compound concentration 10 uM, replicate number 1, timepoint 18 hours; note: unitless GR value; below 1 slowed growth and below 0 cell loss

| molecule | Growth Rate |
| --- | --- |
| CC(C)(C)c1ccc(S(=O)(=O)Nc2ccc(Cl)cc2C(=O)c2cc[n+]([O-])cc2)cc1 | 0.78 |
| CCCN1CCO[C@H]2c3cc(O)ccc3OC[C@@H]21.Cl | 0.92 |
| N#Cc1cc(F)cc(-c2nc(-c3ccc(F)cn3)no2)c1 | 0.57 |
| CN(C)c1ccnc2sc3c(=O)n(N4CCCCCC4)cnc3c12 | 0.51 |
| COC[C@@H](CC(C)C)NC1=N/C(=C\c2ccc3ncsc3c2)C(=O)N1C | 0.22 |
| CCCC(CCC)C(=O)O | 0.9 |
| Nc1cnc(N2CCc3cc(S(=O)(=O)Nc4c(F)cc(Cl)cc4F)cc(N4CCCC4=O)c32)nc1 [TP-020n] | 0.65 |
| CC1(C)[C@H]2C[C@H](C/C=C\CCCC(=O)O)[C@@H](NC(=O)c3csc4ccc(O)cc34)[C@@H]1C2 | 0.37 |
| O=C(NCC(=O)N1CC[C@H](N[C@H]2CC[C@@](O)(c3ccc(-c4ncccn4)cn3)CC2)C1)c1cccc(C(F)(F)F)c1 | 1 |
| Cc1cc(C)cc([C@@H]2c3cc(C)ccc3NC(=O)CN2C(=O)c2ccc(Br)s2)c1 | 0.98 |
| CC(C)c1cc(Oc2c(Cl)cc(-n3nc(C#N)c(=O)[nH]c3=O)cc2Cl)n[nH]c1=O | 0.83 |
| Br.Br.N=C(N)NCCSC(=N)N | 0.96 |
| N#Cc1c(N)nc(SCc2csc(-c3ccc(Cl)cc3)n2)c(C#N)c1-c1ccc(OCCO)cc1 | 0.66 |
| O=C(O)CCCCCC[C@H]1C(=O)NC(=O)N1CCC(O)C1CCCCC1 (some centres undefined) | 0.81 |
| CNCCN1CCC(c2cc(CN(C)C(=O)c3cccc(Oc4ccccc4)c3)ccn2)CC1 | 0.96 |
| O=C(O)CCC/C=C\C[C@H]1C(=O)C[C@@H](O)[C@@H]1/C=C/[C@@H](O)CCc1ccccc1 | 0.77 |
| CCOc1nc2cccc(C(=O)O)c2n1Cc1ccc(-c2ccccc2-c2nnn[nH]2)cc1 | 0.58 |
| CC(C)N(CCCCOCC(=O)NS(C)(=O)=O)c1cnc(-c2ccccc2)c(-c2ccccc2)n1 | 0.99 |
| CCCN(CCC)[C@@H]1CCc2ccc3[nH]c(C#N)cc3c2C1.Cl | 0.73 |

###

tested on: Fibroblast; test: Incucyte cell viability with human fibroblast; format: toxicity, cell-based; conditions: 18 h, 10 µM, compound concentration 10 uM, replicate number 1, timepoint 18 hours; note: unitless GR value; below 1 slowed growth and below 0 cell loss

| smiles.repr | Growth Rate |
| --- | --- |
| O=C(CCCc1ccccc1)Nc1nc2ccccc2c(=O)s1 | -0.7 |
| CN(C)c1ccnc2sc3c(=O)n(N4CCCCCC4)cnc3c12 | -0.36 |
| O=C(O)c1ccccc1S(=O)(=O)NCCCCN1C(=O)c2cccc3cccc(c23)C1=O | 0.79 |
| CN(C)CCn1cc(S(=O)(=O)c2cccc(F)c2)c2cccnc21.Cl.Cl | 0.65 |

###

system: U2OS; assay: Incucyte cell viability with U2OS; format: toxicity, cell-based; settings: human, 0 h, 10 µM, compound concentration 10 uM, replicate number 1, timepoint 0 hours; note: unitless GR value; below 1 slowed growth and below 0 cell loss

| compound | Growth Rate |
| --- | --- |
| COc1cc2nc(N3CCN(C(=O)c4ccco4)CC3)nc(N)c2cc1OC.Cl [PRAZOSIN HYDROCHLORIDE] | -0.45 |
| Nc1nc(Nc2ccccc2)nc2c1ncn2[C@@H]1O[C@H](CO)[C@@H](O)[C@H]1O | 0.4 |
| CC1=C(C)C(=O)C(C(C)(C)CC(=O)N(CCCCSC[C@H]2O[C@@H](n3cnc4c(N)ncnc43)[C@@H]3OC(C)(C)O[C@@H]32)Cc2cccc(-c3ccc(Cl)cc3)c2)=C(C)C1=O | -0.32 |
| CN1CCN(c2cc(-c3ccccc3)nc(N)n2)CC1 | 0.75 |
| N=C(N)NCCC[C@H](NC(=O)COCC(c1ccccc1)c1ccccc1)C(=O)O.O=C(O)C(F)(F)F | 0.29 |
| CC[C@H](Nc1ncnc2[nH]cnc12)c1nc2cccc(F)c2c(=O)n1-c1ccccc1 | 0.06 |
| O=C(O)c1ccccc1S(=O)(=O)NCCCCN1C(=O)c2cccc3cccc(c23)C1=O | 0.34 |
| CCCC(CCC)C(=O)O | 0.41 |
| CCC(=O)NCC[C@@H]1CCc2ccc3c(c21)CCO3 | -0.01 |
| CSc1ccccc1N1CCN(CCCCCC(=O)NC2CCCc3ccccc32)CC1.Cl (stereo not drawn) | -0.43 |
| CCCN(CCc1cccs1)[C@H]1CCc2c(O)cccc2C1 | 0.77 |
| Cl.Clc1ccc2nsnc2c1NC1=NCCN1 [TIZANIDINE HYDROCHLORIDE] | 0.36 |
| CCOC(=O)c1c(/C(C#N)=C\N)c2ccc(Cl)c(Cl)c2n1C | -0.21 |
| CC(C)n1cc(-c2ccc(N3CCN(C)CC3)c(NC(=O)c3ccc(-c4ccncc4)o3)c2)cn1 | 0.32 |
| CSc1nc(NC2CCCC2)c([N+](=O)[O-])c(NC2CCCC2)n1 | 0.05 |
| O=C(Nc1cc(C(F)(F)F)ccc1N1CCN(Cc2ccccn2)CC1)c1ccc(-c2ccncc2)o1 | -0.79 |
| O=C(c1cc(C2CC2)on1)N(C1CCCCC1)C1CCCCC1 | 0.64 |
| C[C@H](NC(=O)c1c(C(F)F)nn(C)c1Oc1cccc(C(F)(F)F)c1)c1ccc(C(=O)O)cc1 | -0.16 |
